The origin of these recorded values is patent US6949583B2.

Counter-ions that a name gives are not always drawn.
Property: melting point; scope: individual compounds

Give the value of melting point reported for the following: CCCCc1oc2ccc(C(=O)OC(C)C)cc2c1C(=O)c1cc(C)c(CCCN(CCCC)CCCC)c(C)c1 (as salt: oxalate)
119 to 121 °C

Give the value of melting point reported for the following: CCCCN(CCCC)CCCc1ccc(C(=O)c2c(CC(C)C)oc3ccc(C(=O)OC(C)C)cc23)cc1 (as salt: oxalate)
105 to 107 °C

Give the value of melting point reported for the following: CCCCc1oc2ccc(C(=O)OC(C)C)cc2c1C(=O)c1ccc([C@@H](O)[C@@H](C)N(CCCC)CCCC)cc1 (as salt: oxalate)
107 to 108 °C

Give the value of melting point reported for the following: CCCCc1oc2ccc(C(=O)OC(C)C)cc2c1C(=O)c1ccc(CN(CCCC)CCCC)cc1 (as salt: oxalate)
107 to 108 °C

Give the value of melting point reported for the following: CCCCc1oc2cc(C)c(C(=O)OC(C)C)cc2c1C(=O)c1ccc(CCCN(CC)CC)cc1 (as salt: oxalate)
155 to 157 °C

Give the value of melting point reported for the following: CCCCc1oc2ccc(C(=O)OC(C)C)cc2c1C(=O)c1cccc(CCCN(CCCC)CCCC)c1 (as salt: oxalate)
87 to 90 °C

Continuing:
Give the value of melting point reported for the following: CCCCc1oc2ccc(C(=O)OC(C)C)cc2c1C(=O)c1ccc(C(C)(C)CCN(CCCC)CCCC)cc1 (as salt: oxalate)
92 to 93 °C

* * *

Counter-ions that a name gives are not always drawn.
property: melting point

Give the value of melting point reported for the following: CCCCN(CCCC)COCc1ccc(C(=O)c2c(C(C)C)oc3ccc(C(=O)OC(C)C)cc23)cc1 (as salt: oxalate)
106 to 108 °C

Give the value of melting point reported for the following: CCCCc1oc(C)c(C(=O)OCC)c1C(=O)c1ccc(CCCN(CCCC)CCCC)cc1 (as salt: oxalate)
133 to 135 °C

Give the value of melting point reported for the following: CCCCc1sc2ccc(C(=O)OC(C)C)cc2c1C(=O)c1ccc(CCCN(CCCC)CCCC)cc1 (as salt: oxalate)
86 to 89 °C

Give the value of melting point reported for the following: CCCCN(CCCC)CCCc1ccc(C(=O)c2c(CCCC(=O)OC)oc3ccc(C(=O)OC(C)C)cc23)cc1 (as salt: oxalate)
105 °C

Give the value of melting point reported for the following: CCCCc1oc2ccc(C(=O)OC(C)C)cc2c1C1(c2ccc(CCCN(CCCC)CCCC)cc2)OCCO1 (as salt: oxalate)
106 to 108 °C

Give the value of melting point reported for the following: CCCCc1oc2ccc(C(=O)OC)cc2c1C(=O)c1ccc(CN(CCCC)CCCC)cc1 (as salt: oxalate)
96 to 97 °C

Give the value of melting point reported for the following: CCCCc1oc2ccc(C(=O)OC(C)C)cc2c1C(=O)c1ccc(COCCCN(CCCC)CCCC)cc1 (as salt: oxalate)
73 to 74 °C

Give the value of melting point reported for the following: CCCCc1oc2ccc(C(=O)OC(C)C)cc2c1C(=O)c1ccc(COCCN(CCCC)CCCC)cc1 (as salt: oxalate)
73 °C

Give the value of melting point reported for the following: CCCCc1oc2ccc(C(=O)OC(C)C)cc2c1C(=O)c1ccc(CCCN(CCCC)CCCC)o1 (as salt: oxalate)
75 to 78 °C

* * *

Structures can show the parent of a compound that is named as a salt.
Property: melting point; scope: individual compounds

Give the value of melting point reported for the following: CCCCc1oc2ccc(C(=O)OC(C)C)cc2c1C(=O)c1ccc(C(O)CN(CCCC)CCCC)cc1 (stereo not shown) (as salt: oxalate)
134 to 135 °C

Give the value of melting point reported for the following: CCCCc1oc2ccc(C(=O)OC)cc2c1C(=O)c1ccc(CN2CCN(CC)CC2)cc1 (as salt: oxalate)
220 to 221 °C

Give the value of melting point reported for the following: CCCCc1oc2ccc(C(=O)OC)cc2c1C(=O)c1ccc(CC(O)CN(CCCC)CCCC)cc1 (stereo not shown) (as salt: oxalate)
128 to 130 °C

Give the value of melting point reported for the following: CCCCc1oc2ccc(C(=O)OC(C)C)cc2c1C(=O)c1ccc(CCCN(CCCC)CCCC)s1 (as salt: oxalate)
100 °C

Give the value of melting point reported for the following: CCCCc1oc2ccc(C(=O)OC(C)C)cc2c1C(=O)c1ccccc1CCCN(CCCC)CCCC (as salt: oxalate)
85 to 88 °C

Give the value of melting point reported for the following: CCCCN(CCCC)CCCc1ccc(C(=O)c2c(CCC(=O)OC)oc3ccc(C(=O)OC(C)C)cc23)cc1 (as salt: oxalate)
107 to 108 °C

Continuing:
Give the value of melting point reported for the following: CCCCc1oc2ccc(C(=O)OC(C)C)cc2c1C(=O)c1cc(Cl)c(CCCN(CCCC)CCCC)c(Cl)c1 (as salt: oxalate)
87 to 89 °C

* * *

Where a name gives a salt, the structure may show the parent alone.
property: melting point

Observe how each entry below is paired with its result.
Give the value of melting point reported for the following: CCCCc1oc2ccc(C(=O)OC(C)C)cc2c1C(=O)c1ccc([C@@H]([C@@H](C)O)N(CCCC)CCCC)cc1 (as salt: oxalate)
150 to 151 °C

Give the value of melting point reported for the following: CCCCc1oc2ccc(C(=O)OC)cc2c1C(=O)c1ccc(C(O)CN(CCCC)CCCC)cc1 (centres unmarked) (as salt: oxalate)
124 to 126 °C

Give the value of melting point reported for the following: CCCCN(CCCC)CCCc1ccc(C(=O)c2c(C3CCCCC3)oc3ccc(C(=O)OC(C)C)cc23)cc1 (as salt: oxalate)
124 to 126 °C

Give the value of melting point reported for the following: CCCCCc1oc2ccc(C(=O)OC(C)C)cc2c1C(=O)c1ccc(CCCN(CCCC)CCCC)cc1 (as salt: oxalate)
124 to 126 °C

Give the value of melting point reported for the following: CCCCc1oc2ccc(C(=O)OC(C)C)cc2c1C(=O)c1ccc(CN2CCN(CC)CC2)cc1 (as salt: oxalate)
222 to 224 °C

Continuing:
Give the value of melting point reported for the following: CCCCc1oc2ccc(C(=O)OC(C)C)cc2c1C(=O)c1ccc(CC(O)CN(CCCC)CCCC)cc1 (centres unmarked) (as salt: oxalate)
90 to 91 °C

Give the value of melting point reported for the following: CCCCN(CCCC)CCCc1ccc(C(=O)c2c(CCC)oc3ccc(C(=O)OC(C)C)cc23)cc1 (as salt: oxalate)
155 to 157 °C

Give the value of melting point reported for the following: CCCCN(CCCC)CCCc1ccc(C(=O)c2c(C)oc3ccc(C(=O)OC(C)C)cc23)cc1 (as salt: oxalate)
107 to 108 °C
